experimentalTarget: full-length human GLP-1R with an N-terminal FLAG tag (human, UniProt P43220 24-463)
method: cell-based or functional assay
Starred links: 1 amine or outer side, 2 acyl side, 3 side chain; linkers in the order of their positions; H or OH if unused. Non-standard residues stand in square brackets, D forms with d. Groups on a side chain read outwards from the residue. No end group written: not given here. *: point of attachment. C16 diacid = O=C(O)CCCCCCCCCCCCCCC(=O)*; γGlu = O=C(O)[C@H](CCC(=O)[*:2])N[*:1]; NMeY = CN[C@@H](Cc1ccc(O)cc1)C(=O)O; AEEA = NCCOCCOCC(=O)O; Aib = CC(C)(N)C(=O)O
outcomeMeasure: Human GLP1R cAMP HEK293T EC50

Task item: Give the measured Human GLP1R cAMP HEK293T EC50 of YXEGTFISDYSIALDRXHQXDFVNWLLAQRPSSGAPPPS (not fully specified; Me-Tyr1; Aib 2,20; Km17 = Lys(gEgE-C15DA); C-term NH2) [Compound 66] .
Reply: 1000 nM

Task item: Give the measured Human GLP1R cAMP HEK293T EC50 of Me-Y[Aib]EGTFISDYSIAKDR[Aib]AQ[Aib]DFVNWLLAQSPSSGAPPPS-OH (not fully specified (residues 1, 14)) [Compound 155] .
Reply: 295 nM

Task item: Give the measured Human GLP1R cAMP HEK293T EC50 of [NMeY][Aib]EGTFISDYSIALDRIHQK([AEEA-AEEA-γGlu-C16 diacid])NFVNWLLAQK (not fully specified) [Compound 4] .
Reply: 692 nM
